Hi there, I'd appreciate the recorded pIC50 for every entry that follows.
Target: CDK2-NanoLuc fusion with CCNE1 in 293T or 293 cells (Homo sapiens)
Construct: host or cells: 293T (ATCC CRL-3216) or 293 (ATCC CRL-1573)
Experiment: NanoBRET Target Engagement (TE) Intracellular Kinase Assay, CDK2/CCNE1
Assay type: cell-based
Conditions: NanoBRET TE intracellular kinase assay, 2-hour incubation, read-out: NanoBRET-CDK2/E1 IC50
Give bare numbers, as −log10 of the molar value.

# example entries with known answers
COMPOUND: CC(C)NC(=O)O[C@@H]1CC[C@H](c2cc(Nc3nccc4c(C=O)c(O)ccc34)n[nH]2)C1 [Compound 260]
ATTRIBUTE MEASURED: pIC50
MEASURED RESULT: 7.82

COMPOUND: COc1cc(O)c(C=O)c(OCC(=O)Nc2cc([C@H]3CC[C@@H](OC(=O)N(OC)C(C)C)C3)[nH]n2)c1 [Compound 171]
ATTRIBUTE MEASURED: pIC50
MEASURED RESULT: 8.49

COMPOUND: COc1cc(O)c(C=O)c(CCC(=O)Nc2cc([C@H]3CC[C@@H](OC(=O)NC(C)C)C3)[nH]n2)c1 [Compound 22, 2,2,2-trifluoroacetate]
ATTRIBUTE MEASURED: pIC50
MEASURED RESULT: 8.32

QUERY: What value of measured pIC50 is listed for COc1cc(O)c(C=O)c(OCC(=O)Nc2cc([C@H]3CC[C@@H](OC(=O)N4C[C@H]5C[C@@H]4CO5)C3)[nH]n2)c1 [Compound 203] ?
RESULT: 8.13

====

Hi there, I'd appreciate the recorded pIC50 for every entry that follows.
Target: CDK4-NanoLuc fusion with CCND1 in 293T or 293 cells (Homo sapiens)
Construct: host or cells: 293T (ATCC CRL-3216) or 293 (ATCC CRL-1573)
Assay: NanoBRET Target Engagement (TE) Intracellular Kinase Assay, CDK4/CCND1
Type: cell-based
Settings: NanoBRET TE intracellular kinase assay, 2-hour incubation, read-out: NanoBRET-CDK4/D1 IC50
pIC50: −log10 of the molar value.

COMPOUND: CC(C)NC(=O)O[C@@H]1CC[C@H](c2cc(Nc3nccc4c(C=O)c(O)ccc34)n[nH]2)C1 [Compound 260]
TARGET OF ASSAY: CDK4-NanoLuc fusion with CCND1 in 293T or 293 cells (Homo sapiens)
pIC50: < 5.00

COMPOUND: COCCOCCNC(=O)O[C@@H]1CC[C@H](c2cc(NC(=O)COc3cc(OC)cc(O)c3C=O)n[nH]2)C1 [Compound 210]
TARGET OF ASSAY: CDK4-NanoLuc fusion with CCND1 in 293T or 293 cells (Homo sapiens)
pIC50: < 5.00

Now, please, on to the next compound.
QUERY: What value of measured pIC50 is listed for COc1cc(O)c(C=O)c(O[C@H](C)C(=O)Nc2cc([C@H]3C[C@@H](OC(=O)N4C5COCC4C5)C3)[nH]n2)c1 [Compound 193] ?
RESULT: < 5.00

====

Biological target: CDK4-NanoLuc fusion with CCND1 in 293T or 293 cells (Homo sapiens, UniProt P11802)
Construct: host or cells: 293T (ATCC CRL-3216) or 293 (ATCC CRL-1573)
Sequence (P11802 whole entry, the tested form may be a part): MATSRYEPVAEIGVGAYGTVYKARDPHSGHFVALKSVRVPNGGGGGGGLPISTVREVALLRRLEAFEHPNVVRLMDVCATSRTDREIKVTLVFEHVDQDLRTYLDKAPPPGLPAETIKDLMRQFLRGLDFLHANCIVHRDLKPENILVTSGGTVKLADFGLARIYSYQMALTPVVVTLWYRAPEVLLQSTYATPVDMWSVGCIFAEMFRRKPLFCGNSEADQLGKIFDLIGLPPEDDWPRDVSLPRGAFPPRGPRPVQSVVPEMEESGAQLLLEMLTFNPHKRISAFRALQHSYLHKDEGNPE
Sequence (P24385 whole entry partner, the tested form may be a part): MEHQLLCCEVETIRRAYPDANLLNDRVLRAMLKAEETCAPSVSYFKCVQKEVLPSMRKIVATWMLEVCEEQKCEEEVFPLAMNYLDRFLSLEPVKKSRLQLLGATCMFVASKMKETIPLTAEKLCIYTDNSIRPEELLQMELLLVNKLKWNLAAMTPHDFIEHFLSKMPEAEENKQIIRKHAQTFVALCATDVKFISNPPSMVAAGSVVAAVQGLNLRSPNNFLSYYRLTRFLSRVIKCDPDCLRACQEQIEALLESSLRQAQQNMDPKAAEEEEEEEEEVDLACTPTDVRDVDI
Assay: NanoBRET Target Engagement (TE) Intracellular Kinase Assay, CDK4/CCND1
Type: cell-based
Conditions: NanoBRET TE intracellular kinase assay, 2-hour incubation, read-out: NanoBRET-CDK4/D1 IC50
pIC50: −log10 of the molar value.
Hi there, I'd appreciate the recorded pIC50 for every entry that follows.

# example entries with known answers
COMPOUND: CC(C)NC(=O)O[C@@H]1CC[C@H](c2cc(NC(=O)COc3cccc(NS(C)(=O)=O)c3C=O)n[nH]2)C1 [Compound 49]
pIC50: < 5.00
--
COMPOUND: COc1cc(O)c(C=O)c(OCC(=O)Nc2cc([C@H]3CC[C@@H](OC(=O)NC4CN(C)C4)C3)[nH]n2)c1 [Compound 185]
pIC50: < 5.00

Now, please, on to the next compound.
QUERY: What value of measured pIC50 is listed for CCCONC(=O)O[C@@H]1CC[C@H](c2cc(NC(=O)COc3cc(OC)cc(O)c3C=O)n[nH]2)C1 [Compound 135] ?
RESULT: < 5.00
